Hey, just so you know, these numbers are from the RepoRT retention time repository.

- Assay Text: HILIC, Waters Atlantis Premier BEH Z-HILIC, 100 × 2.1 mm, 1.7 µm, 40 °C, 0.15 mL/min, estimated dead time 1.5 min; A: water + 20 mM ammonium carbonate + 5 µM medronic acid; B: 10% water + 90% acetonitrile + 2 mM ammonium carbonate + 0.5 µM medronic acid; gradient (min/%B) 0/95 18/55 18.1/20 21.5/20 22/95 23.5/95 25.5/95
- Assay Conditions: stereoisomer not certain
Measured Quantity: LC retention time (min)
Quick reminder: number only, in min, skip the unit.

The following compounds have reported results that may help.
CC(=O)NC1C(OP(=O)(O)OP(=O)(O)OCC2OC(n3ccc(=O)[nH]c3=O)C(O)C2O)OC(CO)C(O)C1O (stereo not given) [UDP-GlcNAc] | 9.78
NC(=O)c1ccc[n+](C2OC(COP(=O)(O)OP(=O)(O)OCC3OC(n4cnc5c(N)ncnc54)C(O)C3O)C(O)C2O)c1 (stereo not given) [NAD] | 10.2

Need LC retention time, item O=C(CO)COP(=O)(O)O [Triose phosphate]
10.2

Another compound to check: CC(=O)SCCNC(=O)CCNC(=O)C(O)C(C)(C)COP(=O)(O)OP(=O)(O)OCC1OC(n2cnc3c(N)ncnc32)C(O)C1OP(=O)(O)O (stereo not given) [Acetyl-CoA]
10.1

Another compound to check: O=P(O)(O)OCC(O)CO (stereo not given) [Glycerol-3-phosphate]
10.2
